# System: SK-MEL-28
# procedure-summary: NCI tumour cell line growth inhibition, 48 h
Active and inactive are the calls of the source. No stated cut-off is given here; in the data, active = GI50 up to about 1.1 µM and inactive = higher.
experimental-readout: GI50

[
  {
    "compound": "CCN(CCCl)c1cc(CN(C)C)cc(NC(=O)c2ccc(C(=O)Nc3cccc(CN(C)C)c3)cc2)c1",
    "result": "2.07 µM (inactive)"
  },
  {
    "compound": "COc1cc(C(c2cc(OC)c(OC)c(OC)c2)N2C(=O)CCC2C(=O)O)cc(OC)c1OC (stereo not given)",
    "result": "> 100 µM (inactive)"
  },
  {
    "compound": "CN1CCC(CNC(=O)CCCCCCCCC(=O)NCC2(c3ccccc3)CCN(C)CC2)(c2ccccc2)CC1",
    "result": "> 100 µM (inactive)"
  },
  {
    "compound": "CC(C)(C)C(C#N)(C#N)c1ccc(C(C#N)(C#N)C(C)(C)C)nn1",
    "result": "> 100 µM (inactive)"
  }
]

Now let's try a different one.
GI50 recorded for this compound, O=C1Nc2ccccc2/C1=N/Nc1nc(-c2ccccc2)cs1 , is 36.1 µM (inactive)

----------
# Tested on: OVCAR-8
# procedure-summary: NCI tumour cell line growth inhibition, 48 h
Active and inactive are the calls of the source. Cut-off read from the data, not from the text of the source: active = GI50 up to about 1.1 µM and inactive = higher.
Entries and their measured GI50 follow.

[
  {
    "smiles-entry": "O=C(/C=C/c1ccc(OCCCOc2ccc(/C=C/C(=O)c3ccc(Cl)cc3)cc2)cc1)c1ccc(Cl)cc1",
    "experimental-readout": "GI50",
    "result": "> 100 µM (inactive)"
  },
  {
    "smiles-entry": "c1ccc2cc3c(cc2c1)nc1ccccn13",
    "experimental-readout": "GI50",
    "result": "> 100 µM (inactive)"
  }
]

Just so you know, measured GI50 for O=C1c2ccccc2-c2nnc3c(c21)Cc1ccccc1C3 came out at > 10 µM (inactive)

----------
# System: HCT-116
# procedure-summary: NCI tumour cell line growth inhibition, 48 h
The source made the active and inactive calls. Cut-off read from the data, not from the text of the source: active = GI50 up to about 1.1 µM and inactive = higher.
Select the matching outcome among active, inactive

As a guide, the following entries are already answered.
[
  {
    "compound": "COC(=O)c1ccc(/C=C/c2cc(O)ccc2O)cc1",
    "class": "inactive"
  },
  {
    "compound": "O=C(CCc1nnc(S)[nH]1)Nc1cc(Cl)c(Cl)cc1Cl",
    "class": "inactive"
  }
]

Test call, this compound: Fc1cc(-c2cc(-c3ccccc3)no2)c(Cl)cc1Cl
inactive

Returns: the outcome recorded for [O-]/[N+](=C\c1ccccc1OC(=S)S)c1ccc(Cl)cc1 in this assay.
inactive

Please indicate how the test categorized N=C(N)NS(=O)(=O)c1ccc(NC(=O)c2cccc3c(NNc4ccc(S(=O)(=O)N=C(N)N)cc4)c4ccccc4nc23)cc1 .
inactive

Dear colleague, could you share the recorded outcome for Nn1c(CCCl)nc2c(Br)cc(Br)cc2c1=O when you have a moment?
inactive

Fill in: this test's call for CN(C(=O)c1ccco1)C(=S)N1CCN(c2ccccn2)CC1 is ___
inactive

----------
# System: HCC 2998
# procedure-summary: NCI tumour cell line growth inhibition, 48 h
Active and inactive are the calls of the source. No stated cut-off is given here; in the data, active = GI50 up to about 1.1 µM and inactive = higher.
Permitted responses: active, inactive

[
  {
    "compound": "Cc1csc2nc(-c3cccc([N+](=O)[O-])c3)c(/C=N/N=C(N)N)n12",
    "class": "active"
  },
  {
    "compound": "COc1ccc(OC)c2sc(N3C(=O)/C(=C/Cc4ccco4)N=C3c3ccccc3)nc12",
    "class": "inactive"
  },
  {
    "compound": "N/C(=N\\Nc1ccc(S(N)(=O)=O)cc1)c1cnccn1",
    "class": "inactive"
  }
]

Hi team, can someone confirm the assay call for CN1Cc2ccccc2C2(COc3ccccc3C2=O)C1 (stereo not given) ?
inactive

----------
# System: NCI/ADR-RES
# procedure-summary: NCI tumour cell line growth inhibition, 48 h
Calls of active or inactive are those of the source. Rule as the data show it: active = GI50 up to about 1.1 µM and inactive = higher.
experimental-readout: GI50

[
  {
    "compound": "CCOP(=O)(OCC)C(c1ccc(F)cc1)N(C(=O)NC(F)(F)F)c1ccc(F)cc1 (stereo not drawn)",
    "experimental-readout": "GI50",
    "result": "> 100 µM (inactive)"
  },
  {
    "compound": "COc1ccc2c(C)cc(N/N=C/c3ccc(OC)c4ccccc34)nc2c1",
    "experimental-readout": "GI50",
    "result": "14.4 µM (inactive)"
  }
]

Next item in the queue.
The value of GI50 measured for the compound O=[N+]([O-])c1ccc2c(c1)/C(=N/N=C1c3ccccc3Cc3ccccc31)c1cc([N+](=O)[O-])cc([N+](=O)[O-])c1-2 turned out to be 2.19 µM (inactive)

----------
Items are presented alongside their recorded GI50.
# System: SK-MEL-28
# procedure-summary: NCI tumour cell line growth inhibition, 48 h
The source made the active and inactive calls. Rule as the data show it: active = GI50 up to about 1.1 µM and inactive = higher.

// field: GI50; key: C/C(=N\Nc1ccc2ccccc2n1)c1ccccc1O ; value = > 100 µM (inactive)

Lab note: measured GI50 of CN(C)/C=N/S(=O)(=O)c1nn2c(C=O)c(-c3ccc([N+](=O)[O-])cc3)nc2s1 was 4.23 µM (inactive)

Item: COc1ccc(Cc2cc(Cc3ccc(OC)cc3)cc(Cc3ccc(OC)cc3)c2)cc1 | GI50: > 100 µM (inactive)

Sample CCc1nnc(CC)n1N1C(=O)CCC1=O ; GI50 observed: > 100 µM (inactive)

Consider CN/N=C(\C(=O)Nc1ccc([N+](=O)[O-])cc1[N+](=O)[O-])C1NC(=O)NC1=O (stereo not given) . Its measured GI50 is > 100 µM (inactive)

Measured GI50 of CC1(C)Cc2nc3c(cc2C(=O)C1/C=N/C(C#N)=C(\N)C#N)C(=O)C(/C=N/C(C#N)=C(\N)C#N)C(C)(C)C3 (stereo not given) : 1.98 µM (inactive)

Entry CCC12CC(c3ccccc3)C(C(=O)N1)C(=O)N2 (stereo not given) , GI50 reported as > 100 µM (inactive)

The compound COC1CC(O[C@H]2CC[C@@]3(C)[C@@H](CC[C@]4(O)[C@@H]3CC[C@]3(C)[C@@H](C(C)=O)[C@H](OC(=O)CC(C)C)[C@@H](OC(=O)c5ccccc5)[C@@]34O)C2)OC(C)C1OC1CC(OC)C(OC2OC(C)C(O)C(OC)C2O)C(C)O1 (stereo not given in full) showed GI50 equal to > 25 µM (inactive)

Just so you know, measured GI50 for O=C(O)CSCc1cccc2ccccc12 came out at > 100 µM (inactive)

Record COC(=O)c1ccc2c(c1)CC1(C2)Cc2ccccc2C1=O (stereo not given) , field GI50: 14.8 µM (inactive)

----------
# System: MDA-MB-231
# procedure-summary: NCI tumour cell line growth inhibition, 48 h
Calls of active or inactive are those of the source. Cut-off read from the data, not from the text of the source: active = GI50 up to about 1.1 µM and inactive = higher.
Catalogue of GI50 values

Observe how each entry below is paired with its result.
[
  {
    "molecule": "CCOC(=O)c1c2cccccc-2nc1Nc1cccc2c(C)ccnc12",
    "experimental-readout": "GI50",
    "result": "> 10 µM (inactive)"
  },
  {
    "molecule": "CCOc1cc2c(c(OCC)c1O)CC[C@@H]1[C@@H]2CC[C@]2(C)[C@@H](O)CC[C@@H]12",
    "experimental-readout": "GI50",
    "result": "2.62 µM (inactive)"
  },
  {
    "molecule": "C/N=C1\\OC2=C3C(c4ccccc4)(O/C(=N/C)N(C)C3(c3ccccc3)OC2=O)N1C (stereo not given)",
    "experimental-readout": "GI50",
    "result": "> 100 µM (inactive)"
  },
  {
    "molecule": "CC1=C(C(=O)NCC(C)O)CC(C(=O)NCC(C)O)=C(C)N1 (stereo not given)",
    "experimental-readout": "GI50",
    "result": "46.5 µM (inactive)"
  }
]

Continue with the molecule presented below.
Record O=C(O)C1CSC2(CCCN(Cc3ccccc3)C2)N1 (stereo not given) . Reported GI50: > 100 µM (inactive)

----------
# System: Malme-3M
# procedure-summary: NCI tumour cell line growth inhibition, 48 h
Activity calls are given as the source filed them. Rule as the data show it: active = GI50 up to about 1.1 µM and inactive = higher.
Thanks in advance; please answer with one of these: active, inactive

So what was the verdict on COc1cccc2c1C(=O)c1c(O)c3c(c(O)c1C2=O)C[C@](O)(C(=O)CO)CC3OC1CC(N)C(OC2CCCCO2)C(C)O1 (stereo partly drawn) in this test?
active

Query: recorded result category for C/C(=N\Nc1ccc2ccccc2n1)c1ccccc1O in this test
inactive

Any idea what this test logged for Nn1c(CCCl)nc2c(Br)cc(Br)cc2c1=O ?
inactive

----------
# System: MCF7
# procedure-summary: NCI tumour cell line growth inhibition, 48 h
Calls of active or inactive are those of the source. Rule as the data show it: active = GI50 up to about 1.1 µM and inactive = higher.
Valid outcomes are listed here; reply with one: 1 (yes) (active), 0 (no) (inactive)

# example entries with known answers
[
  {
    "compound": "O=C1Nc2ccccc2/C1=N/Nc1nc(-c2ccccc2)cs1",
    "class": "0 (no)"
  },
  {
    "compound": "COc1cc2cnc(-c3ccccc3)cc2cc1OC",
    "class": "0 (no)"
  },
  {
    "compound": "O=C1CC(c2ccccc2Cl)C2(C(=O)NC(=S)NC2=O)C(c2ccccc2Cl)C1 (stereo not given)",
    "class": "0 (no)"
  }
]

How did this test come out for NCCCNCCCCN1CCOC1=O ?
0 (no)

For this compound, state the assay outcome: COc1ccc(/C=C2\Sc3nnc(C)n3N=C2c2cc(F)c(Cl)cc2Cl)cc1OC
0 (no)

I'd appreciate the recorded outcome for FC1=C2C3CCC(C3)C2C1(F)F (stereo not given) from this test.
0 (no)

// outcome(item) with item = CCCCCCCCCCCCC/C=C/[C@@H](O)[C@H](COC1OC(CO)C(OC2OC(CO)C(O)C(OC3(C(=O)O)CC(O)C(NC(C)=O)C(C(O)C(O)CO)O3)C2O)C(O)C1O)N=[N+]=[N-] (stereo not given in full)
0 (no)

Kindly provide the recorded test outcome for the following compound: O=C(O)c1cc2ccccc2c(/N=N/c2ccc(S(=O)(=O)Nc3ncccn3)cc2)c1O
0 (no)

Field: outcome | Entry: COC(CN(C=O)[C@@H](c1ccc(Cl)cc1)c1cc2ccccc2o1)OC
0 (no)

Hi team, can someone confirm the assay call for CC1OC(OC2C[C@](O)(C(=O)CF)Cc3c(O)c4c(c(O)c32)C(=O)c2ccccc2C4=O)CC(N)C1O (stereo not given in full) ?
1 (yes)

For COC(=O)C1(NC(=O)C(Cc2ccccc2)N(C(=O)OC(C)(C)C)C(=O)OC(C)(C)C)CCCC1 (stereo not given) , which call appears in the assay record?
0 (no)

Record request — test call for COc1ccc(C2(C3c4cc(OC)c(OC)cc4CCN3C)SCCCS2)cc1O (stereo not given)
0 (no)

Hi, sorry to bother you, what did the test record for CC(=O)/C(=C/c1ccccc1F)C(=O)c1ccccc1 ?
0 (no)

Could you please tell me the result logged for c1ccc(-c2c3c(nc4c2CC[C@H]4NC2=NCCN2)[C@@H](NC2=NCCN2)CC3)cc1 in this assay?
0 (no)

What is the recorded call for this compound in the test? O=C(O)C1SCCS1
0 (no)

Recorded values, source ChEMBL document CHEMBL1201862.
